# SYSTEM_UNDER_TEST: T1, hu-IL-2R (human, UniProt P14784 27-551; P31785 23-369)
# T1 sequence (looked up) 1: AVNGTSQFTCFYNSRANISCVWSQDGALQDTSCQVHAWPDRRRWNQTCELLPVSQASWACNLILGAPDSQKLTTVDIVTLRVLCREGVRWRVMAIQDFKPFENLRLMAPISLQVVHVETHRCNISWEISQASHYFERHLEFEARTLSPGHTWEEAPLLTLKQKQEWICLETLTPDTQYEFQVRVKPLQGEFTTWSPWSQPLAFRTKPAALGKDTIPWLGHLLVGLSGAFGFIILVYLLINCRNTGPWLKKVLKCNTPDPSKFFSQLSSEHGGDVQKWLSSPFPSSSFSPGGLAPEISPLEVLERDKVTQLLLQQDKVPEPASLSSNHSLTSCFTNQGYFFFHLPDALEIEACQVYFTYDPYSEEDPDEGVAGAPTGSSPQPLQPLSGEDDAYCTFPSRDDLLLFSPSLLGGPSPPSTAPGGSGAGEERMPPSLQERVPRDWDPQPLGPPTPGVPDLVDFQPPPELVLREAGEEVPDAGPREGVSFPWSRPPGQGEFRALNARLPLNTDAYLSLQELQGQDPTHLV
# T1 sequence (looked up) 2: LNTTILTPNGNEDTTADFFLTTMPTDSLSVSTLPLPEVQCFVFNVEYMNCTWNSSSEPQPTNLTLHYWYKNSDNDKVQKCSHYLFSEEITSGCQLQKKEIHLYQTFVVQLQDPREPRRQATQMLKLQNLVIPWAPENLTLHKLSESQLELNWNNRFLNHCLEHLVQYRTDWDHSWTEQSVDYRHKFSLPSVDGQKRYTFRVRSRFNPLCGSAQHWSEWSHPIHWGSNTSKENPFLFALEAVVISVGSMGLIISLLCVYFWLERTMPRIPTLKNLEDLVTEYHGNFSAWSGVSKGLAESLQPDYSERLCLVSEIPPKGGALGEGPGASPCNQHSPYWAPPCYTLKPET
# TEST_PROTOCOL: cell-based or functional assay
Primed or numbered codes have the meaning given here. Ends that are not written are not given here. PEG10 = NCCOCCOCCOCCOCCOCCOCCOCCOCCOCCOCCC(=O)O; PEG20′ = not defined here; PEG4′ = not defined here
Could you please report measured EC50 (STAT5, NK92) for the items listed next?
Your answer should be a plain number; it is taken to be in nM.

Summary for this binder, GGWYPCWMAQLGELCDLDGGGGSGGVVCQDWEGVELCWQGG-{PEG10-PEG 40 kDa branched} (cysteine pairing not given here) [PEG-IL-2Rβγc ligand construct PEG-4] : EC50 (STAT5, NK92) is 24

Summary for this binder, {PEG 40 kDa branched-PEG20′}-GGWYPCWMAQLGELCDLDGGGGSGGVVCQDWEGVELCWQGG (cysteine pairing not given here; reading uncertain) [PEG-IL-2Rβγc ligand construct PEG-7] : EC50 (STAT5, NK92) is 8.3

Summary for this binder, {PEG 20 kDa linear-PEG20′}-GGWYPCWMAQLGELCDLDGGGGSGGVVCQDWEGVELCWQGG (cysteine pairing not given here; reading uncertain) [PEG-IL-2Rβγc ligand construct PEG-5] : EC50 (STAT5, NK92) is 1

Summary for this binder, PEG-IL-2Rβγc ligand construct PEG-3 (cysteine pairing not given here) peptide: {PEG 40 kDa branched}-APAPAPAPAPAPGGWYPCWMAQLGELCDLDGGGGSGGVVCQDWEGVELCWQGG : EC50 (STAT5, NK92) is 2.3

Summary for this binder, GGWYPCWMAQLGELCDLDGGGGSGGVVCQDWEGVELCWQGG-{PEG4′-PEG 40 kDa branched} (cysteine pairing not given here) [PEG-IL-2Rβγc ligand construct PEG-2] : EC50 (STAT5, NK92) is 273
